meta.source: ChEMBL document CHEMBL1201862

GI50 reference
Tested on: U-251
assay_notes: NCI tumour cell line growth inhibition, 48 h
The source made the active and inactive calls. No stated cut-off is given here; in the data, active = GI50 up to about 1.1 µM and inactive = higher.
quantity_kind: GI50

* CCOC(=O)C1=C(C)OC2(O)C=CC(O)=C3C(=O)N(c4ccccc4)C(=O)C312 (stereo not given) | 35.7 µM (inactive)
* N#CC1CC2(C1)OCCS2 (stereo not given) | > 100 µM (inactive)
* O=C(/C(=C/c1ccc(Cl)cc1)c1ccccc1)c1ccccc1 | 17 µM (inactive)
* COC(=O)N/N=C(/CCC(=O)Nc1ccc(C)c(C)c1)CC(=O)C(C)(C)C | > 100 µM (inactive)
* CC[C@H]1OC([C@H](O)C/C=C\C#C[Si](C)(C)C)C/C=C\C[C@H]1O[Si](C)(C)C(C)(C)C (stereo not given in full) | > 100 µM (inactive)
* O=C(NC(C(F)(F)F)(C(F)(F)F)P(=O)(c1ccccc1)c1ccccc1)C(C(F)(F)F)C(F)(F)F | 36.6 µM (inactive)
* CCOC(=O)C(C)c1nc2c(Cl)c3ncccc3cc2[nH]c1=O (stereo not given) | 30.8 µM (inactive)
* c1ccc2c(CNCCCCCCCCCCCCNCc3cccc4ccccc34)cccc2c1 | 1.77 µM (inactive)
* O=C(Nc1ccc(Cl)c(Cl)c1)C(=O)C(C(=O)c1ccccc1F)C1OC(=O)c2ccccc21 (stereo not given) | 12.7 µM (inactive)
* CCOC(=O)C1(C#N)C(c2ccccc2)CC(O)(c2ccc(OC)cc2)C(C(=O)c2ccc(OC)cc2)C1c1ccccc1 (stereo not given) | > 100 µM (inactive)
